Target: ABCC1/MRP1 (Homo sapiens, UniProt P33527)
Sequence (P33527 whole entry): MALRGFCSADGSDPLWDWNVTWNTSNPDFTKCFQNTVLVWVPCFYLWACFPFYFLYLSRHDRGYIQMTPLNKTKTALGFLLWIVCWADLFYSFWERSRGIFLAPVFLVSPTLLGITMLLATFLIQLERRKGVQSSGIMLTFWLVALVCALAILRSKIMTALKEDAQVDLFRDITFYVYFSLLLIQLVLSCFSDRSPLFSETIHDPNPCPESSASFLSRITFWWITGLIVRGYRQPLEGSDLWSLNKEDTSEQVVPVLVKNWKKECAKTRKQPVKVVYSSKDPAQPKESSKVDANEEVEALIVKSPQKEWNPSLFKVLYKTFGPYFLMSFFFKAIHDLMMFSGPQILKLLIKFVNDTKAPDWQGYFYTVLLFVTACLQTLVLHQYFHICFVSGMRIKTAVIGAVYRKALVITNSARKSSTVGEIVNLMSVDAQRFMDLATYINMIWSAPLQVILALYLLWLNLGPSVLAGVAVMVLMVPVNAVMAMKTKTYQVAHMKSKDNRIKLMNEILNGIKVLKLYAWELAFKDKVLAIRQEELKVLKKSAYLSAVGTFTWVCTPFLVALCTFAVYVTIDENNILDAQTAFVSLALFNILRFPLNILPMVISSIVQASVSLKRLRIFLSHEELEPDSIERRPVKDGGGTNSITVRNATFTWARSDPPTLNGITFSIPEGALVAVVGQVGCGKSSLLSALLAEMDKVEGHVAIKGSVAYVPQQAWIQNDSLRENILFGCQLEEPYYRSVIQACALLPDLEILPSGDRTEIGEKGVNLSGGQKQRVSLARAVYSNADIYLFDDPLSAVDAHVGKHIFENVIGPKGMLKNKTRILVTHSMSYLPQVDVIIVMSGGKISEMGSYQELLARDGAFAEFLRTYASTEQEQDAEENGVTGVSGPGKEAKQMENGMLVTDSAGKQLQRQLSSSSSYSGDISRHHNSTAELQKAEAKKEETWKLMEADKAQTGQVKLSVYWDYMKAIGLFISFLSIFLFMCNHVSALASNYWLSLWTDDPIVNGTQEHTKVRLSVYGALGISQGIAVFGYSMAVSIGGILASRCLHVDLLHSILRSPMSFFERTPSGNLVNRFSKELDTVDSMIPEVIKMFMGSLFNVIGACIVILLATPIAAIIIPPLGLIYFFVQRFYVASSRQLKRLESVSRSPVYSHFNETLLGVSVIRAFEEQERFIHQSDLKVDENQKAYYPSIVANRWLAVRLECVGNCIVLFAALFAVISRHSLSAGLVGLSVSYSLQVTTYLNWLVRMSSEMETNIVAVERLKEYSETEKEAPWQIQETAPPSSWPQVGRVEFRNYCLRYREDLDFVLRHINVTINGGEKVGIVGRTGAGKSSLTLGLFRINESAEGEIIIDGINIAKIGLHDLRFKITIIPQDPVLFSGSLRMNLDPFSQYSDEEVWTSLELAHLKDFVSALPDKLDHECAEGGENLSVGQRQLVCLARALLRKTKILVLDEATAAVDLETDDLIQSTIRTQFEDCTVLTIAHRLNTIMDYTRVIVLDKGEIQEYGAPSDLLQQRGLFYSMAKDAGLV
Test: in vitro
Conditions: human
Description: For the ABC transporter assays, we used both cell-based and membrane-based functional assays. […] The respective transport activities were assayed by measuring the cellular fluorescence of the respective transported substrates Phengreen (ABCG2) and Calcein (ABCB1 and ABCC1). […] The cells were kept on ice until the flow cytometry measurements. […] The PhenGreen (PG) or Calcein signal was detected in the BL1 channel (emission filter: 530/30 nm). […]

{"molecule": "CCN(CCO)CCCC(C)Nc1ccnc2cc(Cl)ccc12 (stereo not shown) [hydroxychloroquine]", "IC50 at 40 min": "> 50 µM"}
